- TEST: inhibitors of triacylglycerol accumulation, primary screen, cell-based, uHTS, fluorescence, H9c2 (AID 651582)
- CONDITION_INFO: H9c2 cells, Nile Red lipid (TAG) fluorescence, at 12.5 µM, cells loaded with 200 µM oleic acid
Screen size: about 230,000 compounds; about 1,500 (0.65%) were called active.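 The calls were made as follows: active = pattern-corrected inhibition of lipid staining of at least 50% with the nuclear-stain viability signal not falling by more than 50%; inactive = the rest, inconclusive results apart.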 The sample holds actives, similar compounds and a random draw of the others, so the mix is not that of the screen.
Please reply with one of these outcomes: 1 (yes) (active), 0 (no) (inactive)

[[record]]
compound = "COc1ccc(-c2csc(-c3cccs3)n2)cc1OC"
label_class = "0 (no)"


Prompt: Can you look up the reported call for CC(=O)NCc1ccc(-c2csc(NC(=O)CCCc3nc4ccccc4c(=O)[nH]3)n2)cc1 for me?
Response: 0 (no)

Prompt: Which result was noted for this compound in the test: COc1ccc(-c2cc(-c3ccc(N)cc3)nc(N)c2C#N)cc1OC
Response: 0 (no)

====

- TEST: inhibitors of triacylglycerol accumulation, primary screen, cell-based, uHTS, fluorescence, H9c2 (AID 651582)
- CONDITION_INFO: H9c2 cells, Nile Red lipid (TAG) fluorescence, at 12.5 µM, cells loaded with 200 µM oleic acid; measured here: DAPI nuclei count viability
Out of some 230,000 compounds screened, about 1,500 (0.65%) were called active. The sample as a whole holds a higher share of actives than the screen did.
ATTRIBUTE_MEASURED: DAPI nuclei signal change (viability), lower = more cytotoxic (%)
// return numeric value only (unit: %, not printed)

[[record]]
compound = "c1ccc(Cn2nnc3c(NCC4CC4)ncnc32)cc1"
obs_value = -8.3

[[record]]
compound = "COc1ccc2[nH]c3c(c2c1)CCN1C(=O)C(CC(=O)NCCCN(C)C)C[C@H](C(=O)N2CCOCC2)[C@@]31CCC1CCCC1 (some centres undefined)"
obs_value = -19.4

[[record]]
compound = "CCCC(=O)N1CCC1(C)C(=O)NS(=O)(=O)c1ccc(Cl)cc1 (centres undefined)"
obs_value = 2.06

[[record]]
compound = "O=C(C[C@H]1C[C@H](C(=O)N2CCOCC2)[C@@]2(CCC3CCCC3)c3[nH]c4ccc(Cl)cc4c3CCN2C1=O)NCc1ccco1"
obs_value = 8.62

[[record]]
compound = "CCC(=O)N1CCN(c2ccccc2NC(=O)COc2cccc(C)c2C)CC1"
obs_value = -0.0457

[[record]]
compound = "Cc1ccccc1OCC(=O)Nc1ccc2c(c1)ncn2C"
obs_value = 5.22

[[record]]
compound = "CCc1nc2c(OCc3ccc(F)c(F)c3)cccn2c1N(C)C(=O)c1ccco1"
obs_value = -19.3

[[record]]
compound = "CN(CC(=O)Nc1c(Cl)cccc1Cl)C(=O)CC1OC(=O)c2ccccc21 (centres undefined)"
obs_value = -7


Continue with the next compound.
// sample COc1ccc(CNC(=O)C[C@H]2C[C@H](C(=O)N3CCOCC3)[C@@]3(CCC4CCCC4)c4[nH]c5ccc(Cl)cc5c4CCN3C2=O)cc1OC , its DAPI nuclei signal change (viability), lower = more cytotoxic was 0.251

====

Some compounds, each annotated with its measured DAPI nuclei signal change (viability), lower = more cytotoxic.
- TEST: inhibitors of triacylglycerol accumulation, primary screen, cell-based, uHTS, fluorescence, H9c2 (AID 651582)
- CONDITION_INFO: H9c2 cells, Nile Red lipid (TAG) fluorescence, at 12.5 µM, cells loaded with 200 µM oleic acid; measured here: DAPI nuclei count viability
About 1,500 (0.65%) of roughly 230,000 compounds were called active. Many of the other results were omitted from the sample, so actives are more common in it than they were.
Answer with a number only, understood to be in %.

Look over these answered cases.
[[record]]
compound = "CC[C@]1(c2ccccc2OC)C(=O)N(C(=O)OC)N1C(=O)OC"
unit_abbreviation = "%"
obs_value = 11

[[record]]
compound = "CC1(C(=O)NCc2ccco2)Cc2c(-c3ccc4c(c3)OCO4)ccnc2O1 (configuration not stated)"
unit_abbreviation = "%"
obs_value = -35.6

[[record]]
compound = "O=C(NCCN1CCOCC1)c1cc(-c2cccs2)nc2ccccc12"
unit_abbreviation = "%"
obs_value = 34.9


Kindly note the recorded DAPI nuclei signal change (viability), lower = more cytotoxic for C=CC(=O)Nc1ccc(Nc2ccnc(Nc3ccc(N4CCN(C)CC4)cc3)n2)cc1 , which is -47

Reported DAPI nuclei signal change (viability), lower = more cytotoxic of COc1ccc(CCNC(=O)CCCCn2c(=O)[nH]c3ccccc3c2=O)cc1OC : -8.64

DAPI nuclei signal change (viability), lower = more cytotoxic recorded for this compound, COc1ccc(Cl)cc1NC(=O)CN(C)C(=O)c1cc(-c2cccs2)nn1-c1ccccc1 , is 3.57

response.value for CN(C(=O)c1cccc(NC(=O)Cc2ccc(NC(=O)C3CCN(C(=O)C4CCCCC4)CC3)cc2)c1)C1CCC1 (field: DAPI nuclei signal change (viability), lower = more cytotoxic) = -0.027

Item: COc1ccc(S(=O)(=O)N2CCCCC2c2cc(C(=O)NCc3ccc(F)cc3)no2)cc1 (configuration not stated) | DAPI nuclei signal change (viability), lower = more cytotoxic: -7.14

Value of measured DAPI nuclei signal change (viability), lower = more cytotoxic for the entry Cc1cc(C)n(-c2cc(Oc3ccccc3)ncn2)n1 : 6.79

Sure, the documented DAPI nuclei signal change (viability), lower = more cytotoxic for Cc1ccccc1-c1cc(C(=O)NCc2cccs2)n(CC2CC(c3cccnc3)=NO2)n1 (configuration not stated) is -34.7

Recorded values, source PubChem BioAssay AID651582.
